MEASURED_TARGET: T1, EsCas13d, nuclease-dead (Eubacterium siraeum, UniProt B0MS50, R295A;H300A;R849A;H854A)
T1 sequence: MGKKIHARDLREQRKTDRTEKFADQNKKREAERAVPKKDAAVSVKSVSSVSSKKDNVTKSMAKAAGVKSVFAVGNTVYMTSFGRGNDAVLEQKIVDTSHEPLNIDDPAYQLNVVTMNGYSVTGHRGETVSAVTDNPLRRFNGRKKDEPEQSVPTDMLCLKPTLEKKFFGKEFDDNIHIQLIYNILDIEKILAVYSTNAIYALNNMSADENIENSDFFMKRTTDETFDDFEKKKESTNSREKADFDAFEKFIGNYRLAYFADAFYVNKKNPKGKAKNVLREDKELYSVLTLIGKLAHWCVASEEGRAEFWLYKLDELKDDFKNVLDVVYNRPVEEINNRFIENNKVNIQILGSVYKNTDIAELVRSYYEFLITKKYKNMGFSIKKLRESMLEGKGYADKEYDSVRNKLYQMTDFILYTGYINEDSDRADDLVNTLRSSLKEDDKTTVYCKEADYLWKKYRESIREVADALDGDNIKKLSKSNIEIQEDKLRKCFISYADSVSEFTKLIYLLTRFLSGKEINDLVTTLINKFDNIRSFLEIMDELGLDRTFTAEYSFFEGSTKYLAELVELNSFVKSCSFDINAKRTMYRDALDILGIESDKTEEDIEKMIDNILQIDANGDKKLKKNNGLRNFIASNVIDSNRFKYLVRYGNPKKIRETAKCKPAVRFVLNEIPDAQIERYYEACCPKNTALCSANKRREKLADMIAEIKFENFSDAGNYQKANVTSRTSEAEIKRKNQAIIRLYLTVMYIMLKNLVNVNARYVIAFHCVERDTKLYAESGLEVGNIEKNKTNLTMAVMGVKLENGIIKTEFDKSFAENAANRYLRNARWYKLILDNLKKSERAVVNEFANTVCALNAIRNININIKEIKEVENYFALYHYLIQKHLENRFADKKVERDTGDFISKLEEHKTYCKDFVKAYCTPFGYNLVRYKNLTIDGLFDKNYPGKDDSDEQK
ASSAY: crRNA (strand 1, pre-loaded); Mg2+; 40 mM Tris-HCl pH 7.5, 150 mM NaCl, 6 mM MgCl2, 1 mM DTT, 0.1% Tween-20, 0.2 mg/ml BSA; 25 C; 10 min per concentration, then washed
COND: tags: His6-TwinStrep-SUMO cleaved; N-terminal SNAP kept (SNAP-Surface 488); label: 3' end held by stalled T7 RNA polymerase
REPORTED_PROPERTY: pKd
// field semantics: pKd = negative decimal log of concentration (mol/L)

**Query** Query: pKd; subject: target 2 MT 5'PFS GAU 3'PFS UCG (mixed) RNA 1: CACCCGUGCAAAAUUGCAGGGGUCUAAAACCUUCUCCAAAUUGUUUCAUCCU RNA 2: GGGAAUGGAUCCACAUCUACGAAUUCGAUAGGAUGAAACAAUUUGGAGAAGUCGAGAUCGGAAGAGCACACGU
**Result** 7.82

**Query** Cool, now target 1 A9G,G17U (mixed) RNA 1: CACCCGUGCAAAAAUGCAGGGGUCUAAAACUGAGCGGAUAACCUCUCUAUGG RNA 2: GGGAAUGGAUCCACAUCUACGAAUUCGUACCAUAUAGAGGUUGUCCGCUCACCGAGAUCGGAAGAGCACACGU
**Result** 7.46

**Query** Cool, now target 2 MT 5'PFS AGA 3'PFS UUA (mixed) RNA 1: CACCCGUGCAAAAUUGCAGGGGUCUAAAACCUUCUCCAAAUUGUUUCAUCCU RNA 2: GGGAAUGGAUCCACAUCUACGAAUUCAGAAGGAUGAAACAAUUUGGAGAAGUUAAGAUCGGAAGAGCACACGU
**Result** 7.93

**Query** Cool, now target 1 insU 3' of 21,insC 3' of 8 (mixed) RNA 1: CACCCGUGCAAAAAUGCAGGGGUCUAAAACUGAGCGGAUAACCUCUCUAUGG RNA 2: GGGAAUGGAUCCACAUCUACGAAUUCGUACCUAUAGAGAGGUUAUCCCGCUCACCGAGAUCGGAAGAGCACACGU
**Result** 7.15

**Query** Cool, now target 1 insU 3' of 17,insC 3' of 15 (mixed) RNA 1: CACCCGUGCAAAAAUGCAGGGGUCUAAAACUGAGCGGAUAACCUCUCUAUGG RNA 2: GGGAAUGGAUCCACAUCUACGAAUUCGUACCAUAGUAGCAGGUUAUCCGCUCACCGAGAUCGGAAGAGCACACGU
**Result** 7.58

**Query** Cool, now target 3 insA 3' of 21,insU 3' of 4 (mixed) RNA 1: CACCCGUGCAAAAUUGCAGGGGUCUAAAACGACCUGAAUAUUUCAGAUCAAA RNA 2: GGGAAUGGAUCCACAUCUACGAAUUCGUUUUAUGAUCUGAAAUAUUCAGUGUCUGCAGAUCGGAAGAGCACACGU
**Result** 7.92

**Query** Cool, now target 1 insA 3' of 10,insU 3' of 4 (mixed) RNA 1: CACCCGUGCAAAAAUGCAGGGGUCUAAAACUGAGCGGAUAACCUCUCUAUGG RNA 2: GGGAAUGGAUCCACAUCUACGAAUUCGUACCAUAGAGAGGUUAAUCCGCUUCACCGAGAUCGGAAGAGCACACGU
**Result** 8.03

**Query** Cool, now target 2 MT 5'PFS GAA 3'PFS CGG (mixed) RNA 1: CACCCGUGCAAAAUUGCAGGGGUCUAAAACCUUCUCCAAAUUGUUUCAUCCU RNA 2: GGGAAUGGAUCCACAUCUACGAAUUCGAAAGGAUGAAACAAUUUGGAGAAGCGGAGAUCGGAAGAGCACACGU
**Result** 8.02

**Query** Cool, now target 1 insU 3' of 21,insG 3' of 10 (mixed) RNA 1: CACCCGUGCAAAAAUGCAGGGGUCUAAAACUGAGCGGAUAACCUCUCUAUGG RNA 2: GGGAAUGGAUCCACAUCUACGAAUUCGUACCUAUAGAGAGGUUGAUCCGCUCACCGAGAUCGGAAGAGCACACGU
**Result** 7.09

**Query** Cool, now target 1 insC 3' of 15,insG 3' of 11 (mixed) RNA 1: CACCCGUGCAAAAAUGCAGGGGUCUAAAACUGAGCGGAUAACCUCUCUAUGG RNA 2: GGGAAUGGAUCCACAUCUACGAAUUCGUACCAUAGAGCAGGUGUAUCCGCUCACCGAGAUCGGAAGAGCACACGU
**Result** 7.39

**Query** Cool, now target 2 MT 5'PFS UUU 3'PFS CCA (mixed) RNA 1: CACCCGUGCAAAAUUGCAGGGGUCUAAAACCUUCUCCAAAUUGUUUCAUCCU RNA 2: GGGAAUGGAUCCACAUCUACGAAUUCUUUAGGAUGAAACAAUUUGGAGAAGCCAAGAUCGGAAGAGCACACGU
**Result** 7.74

**Query** Cool, now target 1 insA 3' of 15,insG 3' of 4 (mixed) RNA 1: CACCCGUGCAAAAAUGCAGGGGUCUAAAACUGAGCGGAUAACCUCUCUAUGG RNA 2: GGGAAUGGAUCCACAUCUACGAAUUCGUACCAUAGAGAAGGUUAUCCGCGUCACCGAGAUCGGAAGAGCACACGU
**Result** 8.19

**Query** Cool, now target 2 MT 5'PFS AGC 3'PFS UAC (mixed) RNA 1: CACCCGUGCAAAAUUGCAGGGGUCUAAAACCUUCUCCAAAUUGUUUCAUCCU RNA 2: GGGAAUGGAUCCACAUCUACGAAUUCAGCAGGAUGAAACAAUUUGGAGAAGUACAGAUCGGAAGAGCACACGU
**Result** 7.98

**Query** Cool, now target 2 MT 5'PFS CUC 3'PFS UUG (mixed) RNA 1: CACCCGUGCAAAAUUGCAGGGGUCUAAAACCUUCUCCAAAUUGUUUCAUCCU RNA 2: GGGAAUGGAUCCACAUCUACGAAUUCCUCAGGAUGAAACAAUUUGGAGAAGUUGAGAUCGGAAGAGCACACGU
**Result** 8.49

**Query** Cool, now target 2 MT 5'PFS ACC 3'PFS UGC (mixed) RNA 1: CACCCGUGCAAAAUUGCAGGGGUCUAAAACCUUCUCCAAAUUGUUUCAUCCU RNA 2: GGGAAUGGAUCCACAUCUACGAAUUCACCAGGAUGAAACAAUUUGGAGAAGUGCAGAUCGGAAGAGCACACGU
**Result** 8.11
